src = ChEMBL document CHEMBL4177555

# Lookup of reported log(activity) keyed by entry
Tested on: Mycobacterium tuberculosis
Experiment: Antibacterial activity against Mycobacterium tuberculosis H37Rv nutrient starvation model assessed as log reduction in bacterial colonies at 10 ug/ml measured after 7 days by MPN assay
Type: functional
Number, no unit, nothing else.

Would you please look over these solved cases?
smi	target_or_system	reported
N#C/C(=C\c1ccc(-c2cc(C(=O)O)cc(C(=O)O)c2)o1)c1nc2ccccc2s1	Mycobacterium tuberculosis	2.8
NNC(=O)c1ccncc1	Mycobacterium tuberculosis	1.2
N#C/C(=C\c1ccc(-c2cccc(C(=O)O)c2)s1)c1nc2ccccc2s1	Mycobacterium tuberculosis	2.9

Identify measured log(activity) associated with `COc1c(N2C[C@@H]3CCCN[C@@H]3C2)c(F)cc2c(=O)c(C(=O)O)cn(C3CC3)c12` 2.2

State, in one line, measured log(activity) of `N#C/C(=C\c1ccc([N+](=O)[O-])o1)c1nc2ccccc2s1` 2.8

Find the measured log(activity) of `CO[C@H]1/C=C/O[C@@]2(C)Oc3c(C)c(O)c4c(O)c(c(/C=N/N5CCN(C)CC5)c(O)c4c3C2=O)NC(=O)/C(C)=C\C=C\[C@H](C)[C@H](O)[C@@H](C)[C@@H](O)[C@@H](C)[C@H](OC(C)=O)[C@@H]1C` and report it. 1.3

Give a short answer stating reported log(activity) for `N#C/C(=C\c1ccc(OCC(=O)O)cc1)c1nc2ccccc2s1` . 2.8

----------
This listing pairs molecules with measured pIC50.
Biological target: L-lysine-epsilon aminotransferase (Mycobacterium tuberculosis)
Sequence (P9WQ77 whole entry): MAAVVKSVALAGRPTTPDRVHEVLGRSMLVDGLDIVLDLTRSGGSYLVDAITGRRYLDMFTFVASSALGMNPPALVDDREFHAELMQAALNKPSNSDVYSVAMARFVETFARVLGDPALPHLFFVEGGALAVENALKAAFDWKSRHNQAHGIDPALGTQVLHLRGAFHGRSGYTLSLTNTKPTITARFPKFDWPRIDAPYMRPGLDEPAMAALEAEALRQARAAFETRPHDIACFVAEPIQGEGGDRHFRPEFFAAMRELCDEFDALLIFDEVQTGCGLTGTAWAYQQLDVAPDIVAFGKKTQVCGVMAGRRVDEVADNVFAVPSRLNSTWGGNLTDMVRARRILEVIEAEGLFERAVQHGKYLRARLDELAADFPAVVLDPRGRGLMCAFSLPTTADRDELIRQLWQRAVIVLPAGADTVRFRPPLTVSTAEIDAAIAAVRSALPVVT
// field semantics: pIC50 = negative decimal log of concentration (mol/L)

smi	pIC50
N#C/C(=C\c1ccccc1OCC(=O)O)c1nc2ccccc2s1	4.27

Recall and state the measured pIC50 for `N#C/C(=C\c1ccc(F)cc1)c1nc2ccccc2s1` . 5.39

Please give the documented pIC50 of `N#C/C(=C\c1c[nH]c2ccccc12)c1nc2ccccc2s1` 4.42

Fill in reported pIC50 for this entry: `N#C/C(=C\c1ccc(-c2ccc(C(=O)O)cc2)s1)c1nc2ccccc2s1` 5.17

Read off the recorded pIC50 for `N#C/C(=C\c1ccc2c(c1)OCO2)c1nc2ccccc2s1` 4.18

Given `N#C/C(=C\c1ccc([N+](=O)[O-])o1)c1nc2ccccc2s1` , respond with its pIC50. 4.71

Annotate the molecule `N#C/C(=C\c1ccc(-c2ccc(C(=O)O)cc2)o1)c1nc2ccccc2s1` with its measured pIC50. 4.85

----------
Biological target: L-lysine-epsilon aminotransferase (Mycobacterium tuberculosis, UniProt P9WQ77)
Sequence (P9WQ77 whole entry): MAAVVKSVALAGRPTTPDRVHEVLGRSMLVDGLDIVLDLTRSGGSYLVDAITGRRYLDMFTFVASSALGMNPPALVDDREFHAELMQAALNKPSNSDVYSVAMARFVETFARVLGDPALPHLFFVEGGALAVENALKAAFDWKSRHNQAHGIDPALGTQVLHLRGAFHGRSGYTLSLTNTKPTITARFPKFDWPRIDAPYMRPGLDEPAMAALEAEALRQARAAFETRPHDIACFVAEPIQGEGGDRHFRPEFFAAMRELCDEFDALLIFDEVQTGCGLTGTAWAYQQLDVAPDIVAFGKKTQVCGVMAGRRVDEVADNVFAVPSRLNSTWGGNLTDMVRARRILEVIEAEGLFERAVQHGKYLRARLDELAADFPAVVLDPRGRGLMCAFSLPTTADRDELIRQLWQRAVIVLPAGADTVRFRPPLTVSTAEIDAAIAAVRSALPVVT
reported_metric: pIC50
Schema: pIC50 number; meaning minus log10 of the concentration expressed in molar units.

Report pIC50 under test system L-lysine-epsilon aminotransferase (Mycobacterium tuberculosis, UniProt P9WQ77) for `COc1ccc(/C=C(\C#N)c2nc3ccccc3s2)cc1OC` . 4.21

----------
Below: a set of entries, each annotated with reported MIC.
Test system: Mycobacterium tuberculosis
Assay: Antibacterial activity against replicative stage Mycobacterium tuberculosis H37Rv after 7 days by MABA
Format: functional
Conditions: 168 h
The response must be a number in µM with no trailing unit.

smi	MIC / µM
N#C/C(=C\c1ccc(O)cc1O)c1nc2ccccc2s1	10.6

Give MIC for this entry on Mycobacterium tuberculosis: `CO[C@H]1/C=C/O[C@@]2(C)Oc3c(C)c(O)c4c(O)c(c(/C=N/N5CCN(C)CC5)c(O)c4c3C2=O)NC(=O)/C(C)=C\C=C\[C@H](C)[C@H](O)[C@@H](C)[C@@H](O)[C@@H](C)[C@H](OC(C)=O)[C@@H]1C` 0.5

Look up and report MIC, with Mycobacterium tuberculosis as system, for `N#C/C(=C\c1ccc(OCc2ccccc2)cc1)c1nc2ccccc2s1` 68

# return MIC for `N#C/C(=C\c1ccco1)c1nc2ccccc2s1` , test system: Mycobacterium tuberculosis 49.6

----------
Assay: Growth inhibition of mouse RAW264.7 cells at 50 ug/ml after 48 hrs by MTT assay relative to control
Format: cell-based
Conditions: read-out: GI
Please note: Satisfied applies when inhibition at 48 h, 50 ug/ml is 20% or greater, and Not satisfied applies otherwise.

Illustrative cases are given below, each with its answer.
molecule	label_class
N#C/C(=C\c1ccccc1OCC(=O)O)c1nc2ccccc2s1	Satisfied
NNC(=O)c1ccncc1 [ISONIAZID]	Satisfied
CO[C@H]1/C=C/O[C@@]2(C)Oc3c(C)c(O)c4c(O)c(c(/C=N/N5CCN(C)CC5)c(O)c4c3C2=O)NC(=O)/C(C)=C\C=C\[C@H](C)[C@H](O)[C@@H](C)[C@@H](O)[C@@H](C)[C@H](OC(C)=O)[C@@H]1C [RIFAMPIN]	Satisfied

Check if inhibition at 48 h, 50 ug/ml >= 20% (inclusive). Item: `N#C/C(=C\c1ccc(OCc2ccccc2)cc1)c1nc2ccccc2s1` Satisfied

Given `N#C/C(=C\c1ccc(OCC(=O)O)cc1)c1nc2ccccc2s1` , state whether its inhibition at 48 h, 50 ug/ml is at least 20%. Not satisfied

----------
Target: L-lysine-epsilon aminotransferase (Mycobacterium tuberculosis)
Sequence (P9WQ77 whole entry): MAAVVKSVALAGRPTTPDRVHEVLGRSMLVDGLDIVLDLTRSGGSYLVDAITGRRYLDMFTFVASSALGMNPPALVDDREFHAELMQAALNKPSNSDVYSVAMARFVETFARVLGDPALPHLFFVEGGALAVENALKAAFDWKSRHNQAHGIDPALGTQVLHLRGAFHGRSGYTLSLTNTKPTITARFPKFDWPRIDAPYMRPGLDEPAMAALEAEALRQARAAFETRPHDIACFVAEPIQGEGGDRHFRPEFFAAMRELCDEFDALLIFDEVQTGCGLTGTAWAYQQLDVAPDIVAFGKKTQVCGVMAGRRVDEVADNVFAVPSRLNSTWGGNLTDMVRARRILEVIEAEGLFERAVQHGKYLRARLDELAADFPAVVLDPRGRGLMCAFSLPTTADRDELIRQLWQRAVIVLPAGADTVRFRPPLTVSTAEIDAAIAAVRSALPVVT
reported_metric: pIC50
Keep it numeric: pIC50 is minus log10 of the concentration in mol/L.

In the examples that follow, each entry is paired with its recorded pIC50.
smi	pIC50
N#C/C(=C\c1cccs1)c1nc2ccccc2s1	4.03
N#C/C(=C\c1ccco1)c1nc2ccccc2s1	4.79
N#C/C(=C\c1ccc(OCC(=O)O)cc1)c1nc2ccccc2s1	5.51

Now look at this one.
With L-lysine-epsilon aminotransferase (Mycobacterium tuberculosis) as the test system, provide measured pIC50 for this molecule: `N#C/C(=C\c1ccc(O)cc1)c1nc2ccccc2s1` 4.98

----------
Target: L-lysine-epsilon aminotransferase (Mycobacterium tuberculosis)
Doc: threshold 8 µM (exclusive). Items with IC50 beneath it return t; others return f.

Completed entries (count: 3):
smi	target_or_system	label_class
N#C/C(=C\c1ccc(-c2cc(C(=O)O)cc(C(=O)O)c2)o1)c1nc2ccccc2s1	L-lysine-epsilon aminotransferase (Mycobacterium tuberculosis)	t
N#C/C(=C\c1ccc(-c2cccc(C(=O)O)c2)o1)c1nc2ccccc2s1	L-lysine-epsilon aminotransferase (Mycobacterium tuberculosis)	t
N#C/C(=C\c1ccc(O)cc1O)c1nc2ccccc2s1	L-lysine-epsilon aminotransferase (Mycobacterium tuberculosis)	f

Just wondering, is IC50 of `COc1cc(/C=C(\C#N)c2nc3ccccc3s2)cc(OC)c1OC` below 8 µM? f

# TODO verify IC50 < 8 µM strictly for this compound: `N#C/C(=C\c1ccc(OCc2ccccc2)cc1)c1nc2ccccc2s1` f
